test system: 231MFP breast cancer cells; experiment: 231MFP cell proliferation (Hoechst staining); format: cell-based; details: 48 h, serum-containing media, Hoechst staining; read-out: 50% effective concentration (EC50), impairment of 231MFP cell proliferation
observationType: EC50

• CC1=C(CO)C(=O)O[C@@H]([C@@H](C)[C@H]2CC[C@H]3[C@@H]4C[C@H]5O[C@]56[C@@H](O)C=CC(=O)[C@]6(C)[C@H]4CC[C@]23C)C1 [withaferin A, reference compound] = 7.5 µM
